Entry source: patent US10639284B2

Biological target: human PD-L1 / Human PD-1 (Homo sapiens (Human))
Sequence (Q9NZQ7 19-239): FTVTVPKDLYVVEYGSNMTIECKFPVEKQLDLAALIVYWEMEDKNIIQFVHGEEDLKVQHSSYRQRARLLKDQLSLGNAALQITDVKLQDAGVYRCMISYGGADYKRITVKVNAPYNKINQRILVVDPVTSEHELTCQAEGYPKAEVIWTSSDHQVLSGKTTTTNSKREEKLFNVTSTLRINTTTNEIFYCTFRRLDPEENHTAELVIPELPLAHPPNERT
Experiment: Enzyme-Linked Immunosorbent Assay (ELISA), PD-1/PD-L1 binding
Details: Table 2; plate-coated human PD-L1, biotinylated human PD-1; read-out: ELISA IC50
pIC50: −log10 of the molar value.
Listed compounds paired with reported pIC50
property.name: pIC50

>  <compound>
C[C@@H](O)[C@H](NCc1cc(Cl)c(O[C@@H]2c3cccc(-c4ccccc4F)c3C[C@H]2F)cc1OCc1cncc(C#N)c1)C(=O)O [Example 2.146]

>  <obs.value>
> 7.00

$$$$
>  <compound>
COc1ccc(-c2cccc3c2CC[C@@H]3Oc2cc(OCc3cncc(C#N)c3)c(CN[C@@H](CO)C(=O)O)cc2Cl)c(F)c1 [Example 2.044]

>  <obs.value>
6.30 to 7.00

$$$$
>  <compound>
COc1ccc(F)c(-c2cccc3c2CC[C@@H]3Oc2cc(OCc3cncc(C#N)c3)c(CN3CC(O)C3)cc2Cl)c1 [Example 2.077]

>  <obs.value>
6.30 to 7.00

$$$$

----------
Biological target: human PD-L1 / Human PD-1 (Homo sapiens (Human))
Assay: Enzyme-Linked Immunosorbent Assay (ELISA), PD-1/PD-L1 binding
Conditions: Table 3; plate-coated human PD-L1, biotinylated human PD-1; read-out: ELISA IC50
pIC50: −log10 of the molar value.
Listed molecules paired with reported pIC50
property.name: pIC50

>  <sample.smiles>
N#Cc1cncc(COc2cc(O[C@@H]3CCc4c(-c5ccccc5F)cccc43)c(Cl)cc2CN[C@@H](CO)C(=O)O)c1

>  <assayed.system>
human PD-L1 / Human PD-1 (Homo sapiens (Human))

>  <obs.value>
> 7.00

$$$$
>  <sample.smiles>
N#Cc1cncc(COc2cc(O[C@H]3CCc4c(-c5ccc6c(c5F)OCO6)cccc43)c(Cl)cc2CN[C@@H](CO)C(=O)O)c1

>  <assayed.system>
human PD-L1 / Human PD-1 (Homo sapiens (Human))

>  <obs.value>
> 7.00

$$$$
>  <sample.smiles>
O=C(O)c1cncc(COc2cc(O[C@H]3CCc4c(-c5ccccc5F)cccc43)c(Cl)cc2CN[C@@H](CO)C(=O)O)c1

>  <assayed.system>
human PD-L1 / Human PD-1 (Homo sapiens (Human))

>  <obs.value>
6.30 to 7.00

$$$$

----------
Biological target: human PD-L1 / Human PD-1 (Homo sapiens (Human))
Assay: Enzyme-Linked Immunosorbent Assay (ELISA), PD-1/PD-L1 binding
Details: Table 2; plate-coated human PD-L1, biotinylated human PD-1; read-out: ELISA IC50
Listed compounds paired with reported IC50

>  <compound>
COc1cccc(-c2cccc3c2CC[C@@H]3Oc2cc(OCc3cncc(C#N)c3)c(CN3CCC(O)CC3)cc2Cl)c1Cl [Example 2.071]

>  <IC50>
0.1 to 0.5 µM

$$$$
>  <compound>
N#Cc1cncc(COc2cc(O[C@H]3CCc4c(-c5ccccc5F)cccc43)c(Cl)cc2CNCC(N)=O)c1 [Example 2.171]

>  <IC50>
0.1 to 0.5 µM

$$$$
>  <compound>
N#Cc1cncc(COc2cc(O[C@H]3CCc4c(-c5ccccc5F)cccc43)c(Cl)cc2CN[C@@H](CO)C(=O)O)c1 [Example 2.004]

>  <IC50>
< 0.1 µM

$$$$
>  <compound>
N#Cc1cncc(COc2cc(O[C@@H]3CCc4c(-c5ccccc5F)cccc43)c(Cl)cc2CN2CCC(O)CC2)c1 [Example 2.136]

>  <IC50>
0.1 to 0.5 µM

$$$$
>  <compound>
COc1cccc(-c2cccc3c2CC[C@@H]3Oc2cc(OCc3cncc(C#N)c3)c(CN[C@H](C(=O)O)[C@@H](C)O)cc2Cl)c1F [Example 2.106]

>  <IC50>
< 0.1 µM

$$$$
>  <compound>
OC1CCN(Cc2cc(Cl)c(O[C@H]3CCc4c(-c5ccccc5F)cccc43)cc2OCc2cnc(N3CCC(O)CC3)nc2)CC1 [Example 2.109]

>  <IC50>
0.5 to 20 µM

$$$$

----------
Biological target: human PD-L1 / Human PD-1 (Homo sapiens (Human))
Assay: Enzyme-Linked Immunosorbent Assay (ELISA), PD-1/PD-L1 binding
Conditions: Table 2; plate-coated human PD-L1, biotinylated human PD-1; read-out: ELISA IC50
Protocol: Plates were coated with 1 μg/mL of human PD-L1 (obtained from R&D) in PBS overnight at 4° C. The wells were then blocked with PBS containing 2% BSA in PBS (W/V) with 0.05% TWEEN-20 for 1 hour at 37° C. […] The absorbance was read at 450 nm using a micro-plate spectrophotometer. Compounds in Table 2 and Table 3 were prepared by methods as described in the Examples, and evaluated according to the assay below.
Listed compounds paired with reported IC50

>  <compound>
N#Cc1cncc(COc2cc(O[C@H]3CCc4c(-c5ccccc5F)cccc43)c(Cl)cc2CN2CC(O)(C(=O)O)C2)c1 [Example 2.018]

>  <IC50>
100 to 500 nM

$$$$
>  <compound>
N#Cc1cncc(COc2cc(O[C@H]3CCc4c(-c5ccc(Cl)c(Cl)c5)cccc43)c(Cl)cc2CN[C@@H](CO)C(=O)O)c1 [Example 2.016]

>  <IC50>
500 to 20000 nM

$$$$
>  <compound>
C=CC(=O)NCCNCc1cc(Cl)c(O[C@H]2CCc3c(-c4ccccc4F)cccc32)cc1OCc1cncc(C#N)c1 [Example 2.137]

>  <IC50>
100 to 500 nM

$$$$
>  <compound>
N#Cc1cncc(COc2cc(O[C@H]3CCc4c(-c5ccccc5F)cccc43)c(Cl)cc2CN[C@H](C(=O)O)[C@H](O)c2ccccc2)c1 [Example 2.132]

>  <IC50>
100 to 500 nM

$$$$
>  <compound>
COc1cccc(-c2cccc3c2CC[C@@H]3Oc2cc(OCc3cncc(C#N)c3)c(CNCc3n[nH]c(=O)[nH]3)cc2Cl)c1F [Example 2.053]

>  <IC50>
100 to 500 nM

$$$$
>  <compound>
N#Cc1cncc(COc2cc(O[C@H]3CCc4c(-c5ccccc5)cccc43)c(Cl)cc2CN2CC(C(=O)O)C2)c1 [Example 2.003]

>  <IC50>
< 100 nM

$$$$
>  <compound>
N#Cc1cncc(COc2cc(OC3CCc4c(-c5ccccc5)cccc43)c(Cl)cc2CN2CCCC[C@H]2C(=O)O)c1 (stereo partly shown) [Example 1.005]

>  <IC50>
< 100 nM

$$$$
>  <compound>
N#Cc1cncc(COc2cc(O[C@H]3CCc4c(-c5ccc6c(c5F)OCCO6)cccc43)c(Cl)cc2CN2CC(O)C2)c1 [Example 2.070]

>  <IC50>
< 100 nM

$$$$
>  <compound>
COc1cccc(-c2cccc3c2CCC3CCOc2cc(OCc3cncc(C#N)c3)c(CN[C@@H](CO)C(=O)O)cc2Cl)c1F (stereo partly shown) [Example 2.085]

>  <IC50>
500 to 20000 nM

$$$$
>  <compound>
CCOc1cc(O[C@H]2CCc3c(-c4ccccc4F)cccc32)c(Cl)cc1CN[C@@H](CO)C(=O)O [Example 2.036]

>  <IC50>
< 100 nM

$$$$
>  <compound>
N#Cc1cncc(COc2cc(O[C@H]3CCc4c(-c5ccccc5F)cccc43)c(Cl)cc2CN[C@H](C(=O)O)c2ccccc2)c1 [Example 2.178]

>  <IC50>
100 to 500 nM

$$$$
>  <compound>
NC(=O)COc1cc(O[C@H]2CCc3c(-c4ccccc4F)cccc32)c(Cl)cc1CN[C@@H](CO)C(=O)O [Example 2.124]

>  <IC50>
500 to 20000 nM

$$$$
>  <compound>
CCOc1cc(O[C@H]2CCc3c(-c4ccccc4F)cccc32)c(Cl)cc1CN1CCC(O)CC1 [Example 2.061]

>  <IC50>
500 to 20000 nM

$$$$
